meta.source: ChEMBL document CHEMBL4417631

Reported pIC50 values for a set of compounds
# assay-text: Inhibition of interleukin-23 binding to rat interleukin-23 receptor incubated for 2 hrs by competitive binding ELISA
pIC50: −log10 of the molar value.
measured-endpoint: pIC50

INSERT INTO measurements (record_smiles, measured_endpoint, result) VALUES
  ('CC(=O)N[C@H](C(=O)N[C@@H](CCC(N)=O)C(=O)N[C@H](C(=O)N[C@@H](Cc1c[nH]c2ccccc12)C(=O)N[C@@H](CCC(N)=O)C(=O)N[C@H](C(=O)N[C@@H](Cc1ccc(OCCN)cc1)C(=O)N[C@@H](Cc1ccc2ccccc2c1)C(=O)N[C@@](C)(CCCCN)C(=O)N[C@@H](CCC(=O)O)C(=O)N[C@@H](CC(N)=O)C(=O)N[C@@H](C)C(N)=O)C(C)(C)S)[C@@H](C)O)C(C)(C)S', 'pIC50', '7.00 to 7.60'),
  ('CC(=O)N[C@H]1CCSC[C@@H](C(=O)N[C@@H](Cc2ccc(O)cc2)C(=O)N[C@@H](Cc2c[nH]c3ccccc23)C(=O)N[C@@](C)(CC(C)C)C(=O)N[C@@H](CCC(=O)O)C(=O)N[C@@H](CC(N)=O)C(=O)NCC(N)=O)NC(=O)[C@H](CCC(N)=O)NC(=O)[C@H](Cc2c[nH]c3ccccc23)NC(=O)[C@H]([C@@H](C)O)NC(=O)[C@H](CCC(N)=O)NC1=O', 'pIC50', '7.00 to 7.60'),
  ('CC(=O)N[C@H](C(=O)N[C@@H](CCC(N)=O)C(=O)N[C@H](C(=O)N[C@@H](Cc1c[nH]c2ccccc12)C(=O)N[C@@H](CCC(N)=O)C(=O)N[C@H](C(=O)N[C@@H](Cc1ccc(O)cc1)C(=O)N[C@@H](Cc1c[nH]c2ccccc12)C(=O)N[C@@](C)(CC(C)C)C(=O)N[C@@H](CCC(=O)O)C(=O)N[C@@H](CC(N)=O)C(=O)NCC(N)=O)C(C)(C)S)[C@@H](C)O)C(C)(C)S', 'pIC50', '6.00 to 7.00');

====

# assay-text: Half life in simulated intestinal fluid at 20 uM by LC-MS/MS analysis
# Assay type: ADME
measured-endpoint: half-life at 20 µM

INSERT INTO measurements (record_smiles, measured_endpoint, result) VALUES
  ('CC(=O)NC[C@H](NC(=O)[C@H](CCCN)NC(=O)[C@H](Cc1ccc2ccccc2c1)NC(=O)[C@H](Cc1ccc(OCCN)cc1)NC(=O)[C@@H]1CSCC[C@H](NC(C)=O)C(=O)N[C@@H](CCC(N)=O)C(=O)N[C@@H]([C@@H](C)O)C(=O)N[C@@H](Cc2c[nH]c3ccccc23)C(=O)N[C@@H](CCC(N)=O)C(=O)N1)C(=O)N[C@@H](CC(N)=O)C(=O)NCC(N)=O', 'half-life at 20 µM', '< 60 min'),
  ('CC(=O)N[C@H]1CCSC[C@@H](C(=O)N[C@@H](Cc2ccc(O)cc2)C(=O)N[C@@H](Cc2c[nH]c3ccccc23)C(=O)N[C@@H](CCC(C)C)C(=O)N[C@@H](CCC(=O)O)C(=O)N[C@@H](CC(N)=O)C(=O)NCC(N)=O)NC(=O)[C@H](CCC(N)=O)NC(=O)[C@H](Cc2c[nH]c3ccccc23)NC(=O)[C@H]([C@@H](C)O)NC(=O)[C@H](CCC(N)=O)NC1=O', 'half-life at 20 µM', '< 60 min'),
  ('COc1ccc(C[C@H](NC(=O)[C@@H]2CSCC[C@H](NC(C)=O)C(=O)N[C@@H](CCC(N)=O)C(=O)N[C@@H]([C@@H](C)O)C(=O)N[C@@H](Cc3c[nH]c4ccccc34)C(=O)N[C@@H](CCC(N)=O)C(=O)N2)C(=O)N[C@@H](Cc2ccc3ccccc3c2)C(=O)N[C@H](CC(N)=O)C(=O)N[C@@H](CCCCNC(C)=O)C(=O)N[C@@H](CC(N)=O)C(=O)NCC(N)=O)cc1', 'half-life at 20 µM', '> 360 min'),
  ('CC(=O)NCCCC[C@H](NC(=O)C1(NC(=O)[C@H](Cc2ccc3ccccc3c2)NC(=O)[C@H](Cc2ccc(C(N)=O)cc2)NC(=O)[C@@H](NC(=O)[C@H](CCC(N)=O)NC(=O)[C@H](Cc2c[nH]c3ccccc23)NC(=O)[C@@H](NC(=O)[C@H](CC(N)=O)NC(=O)[C@@H](NC(C)=O)C(C)(C)S)[C@@H](C)O)C(C)(C)S)CCCCC1)C(=O)N[C@@H](CC(N)=O)C(=O)N[C@@H](CC(N)=O)C(N)=O', 'half-life at 20 µM', '> 360 min'),
  ('COc1ccc(C[C@H](NC(=O)[C@H]2NC(=O)[C@H](CCC(N)=O)NC(=O)[C@H](Cc3c[nH]c4ccccc34)NC(=O)[C@H]([C@@H](C)O)NC(=O)[C@H](CCC(N)=O)NC(=O)[C@@H](NC(C)=O)CCSC2(C)C)C(=O)N[C@@H](Cc2ccc3ccccc3c2)C(=O)N[C@@](C)(CCCCN)C(=O)N[C@@H](CCCCNC(C)=O)C(=O)N[C@@H](CC(N)=O)C(=O)NCC(N)=O)cc1', 'half-life at 20 µM', '180 to 360 min');

====

# assayed-target: Interleukin-23 receptor (Homo sapiens, UniProt Q5VWK5)
# Sequence (Q5VWK5 whole entry): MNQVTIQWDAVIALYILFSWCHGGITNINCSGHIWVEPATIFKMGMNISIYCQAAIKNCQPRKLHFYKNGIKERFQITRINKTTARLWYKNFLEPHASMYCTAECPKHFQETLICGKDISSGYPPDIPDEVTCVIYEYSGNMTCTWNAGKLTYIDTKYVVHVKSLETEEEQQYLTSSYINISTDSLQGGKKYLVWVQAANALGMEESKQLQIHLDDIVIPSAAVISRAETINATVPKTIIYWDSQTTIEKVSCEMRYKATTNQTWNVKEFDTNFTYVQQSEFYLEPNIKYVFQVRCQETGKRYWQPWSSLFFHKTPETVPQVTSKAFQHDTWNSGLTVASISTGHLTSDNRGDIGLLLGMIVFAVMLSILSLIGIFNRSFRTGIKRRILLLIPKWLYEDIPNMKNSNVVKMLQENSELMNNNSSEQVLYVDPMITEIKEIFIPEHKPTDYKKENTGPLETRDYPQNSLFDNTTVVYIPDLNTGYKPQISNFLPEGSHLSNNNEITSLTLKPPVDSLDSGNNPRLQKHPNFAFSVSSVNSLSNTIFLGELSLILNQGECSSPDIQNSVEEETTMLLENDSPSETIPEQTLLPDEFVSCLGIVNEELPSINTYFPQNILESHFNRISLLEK
# assay-text: Inhibition of interleukin-23 binding to human interleukin-23 receptor incubated for 2 hrs by competitive binding ELISA
Where a SMILES comes first, the peptide text is derived from it.
// reported IC50 for each item listed
measured-endpoint: IC50

INSERT INTO measurements (compound, result) VALUES
  ('CC(=O)N[C@@H](CS)C(=O)N[C@@H](C)C(=O)N[C@@H](CC(=O)O)C(=O)N[C@@H](Cc1c[nH]c2ccccc12)C(=O)N[C@H](C(=O)N[C@@H](CS)C(=O)N[C@@H](Cc1ccc(O)cc1)C(=O)N[C@@H](Cc1c[nH]c2ccccc12)C(=O)N[C@@H](Cc1cnc[nH]1)C(=O)N[C@@H](CCCNC(=N)N)C(=O)N[C@@H](Cc1cnc[nH]1)C(=O)N[C@@H](C)C(=O)N[C@@H](CC(=O)O)C(=O)N[C@@H](CCCNC(=N)N)C(=O)N[C@H](C(=O)N[C@@H](CCCCN)C(N)=O)C(C)C)C(C)C (Ac-CADWVCYWHRHADRVK-NH2)', '< 0.5 µM'),
  ('CC(=O)N[C@@H](CS)C(=O)N[C@@H](C)C(=O)N[C@@H](CC(=O)O)C(=O)N[C@@H](Cc1c[nH]c2ccccc12)C(=O)N[C@H](C(=O)N[C@@H](CS)C(=O)N[C@@H](Cc1ccc(O)cc1)C(=O)N[C@@H](Cc1ccc(C(F)(F)F)cc1)C(=O)N[C@@H](CCCN)C(=O)N[C@@H](CN)C(=O)N[C@@H](Cc1ccccc1)C(=O)NCC(=O)NCCOCC(=O)N[C@H](CCCCN)C(N)=O)C(C)C', '> 1 µM'),
  ('CC(C)[C@H](NC(=O)[C@H](Cc1c[nH]c2ccccc12)NC(=O)[C@H](CC(=O)O)NC(=O)[C@H](C)NC(=O)[C@@H](N)C(C)(C)S)C(=O)N[C@H](C(=O)N[C@@H](Cc1ccc(O)cc1)C(=O)N[C@@H](Cc1c[nH]c2ccccc12)C(=O)N[C@@H](Cc1cnc[nH]1)C(=O)N[C@H](C(=O)N[C@@H](Cc1ccccc1)C(=O)NCC(N)=O)[C@@H](C)O)C(C)(C)S', '> 6 µM'),
  ('COc1ccc(C[C@H](NC(=O)[C@@H]2CSCC[C@H](NC(C)=O)C(=O)N[C@@H](CCC(N)=O)C(=O)N[C@@H]([C@@H](C)O)C(=O)N[C@@H](Cc3c[nH]c4ccccc34)C(=O)N[C@@H](CCC(N)=O)C(=O)N2)C(=O)N[C@@H](Cc2ccc3ccccc3c2)C(=O)N[C@@H](CCCN)C(=O)N[C@@H](CCCCNC(C)=O)C(=O)N[C@@H](CC(N)=O)C(=O)NCC(N)=O)cc1', '0.1 to 1 µM'),
  ('CC(=O)N[C@@H](CS)C(=O)N[C@@H](C)C(=O)N[C@@H](CC(=O)O)C(=O)N[C@@H](Cc1c[nH]c2ccccc12)C(=O)N[C@H](C(=O)N[C@@H](CS)C(=O)N[C@@H](Cc1ccc(O)cc1)C(=O)N[C@@H](Cc1c[nH]c2ccccc12)C(=O)N[C@@H](Cc1cnc[nH]1)C(=O)N[C@H](C(=O)N[C@@H](Cc1ccccc1)C(=O)N[C@H](CCCCN)C(=O)O)[C@@H](C)O)C(C)C', '> 1 µM');

====

# assay-text: Half life in simulated gastric fluid at 20 uM by LC-MS/MS analysis
# Type: ADME
# half-life at 20 µM listing for each entry below
measured-endpoint: half-life at 20 µM

INSERT INTO assay_data (record_smiles, result) VALUES
  ('CC(=O)NCCCC[C@H](NC(=O)C(C)(C)NC(=O)[C@H](Cc1ccc2ccccc2c1)NC(=O)[C@H](Cc1ccc(C(N)=O)cc1)NC(=O)[C@@H](NC(=O)[C@H](CCC(N)=O)NC(=O)[C@H](Cc1c[nH]c2ccccc12)NC(=O)[C@@H](NC(=O)[C@H](CC(N)=O)NC(=O)[C@@H](NC(C)=O)C(C)(C)S)[C@@H](C)O)C(C)(C)S)C(=O)N[C@@H](CC(N)=O)C(=O)N[C@@H](CC(N)=O)C(N)=O', '3 to 6 h'),
  ('COc1ccc(C[C@H](NC(=O)[C@@H]2CSCC[C@H](NC(C)=O)C(=O)N[C@@H](CCC(N)=O)C(=O)N[C@@H]([C@@H](C)O)C(=O)N[C@@H](Cc3c[nH]c4ccccc34)C(=O)N[C@@H](CCC(N)=O)C(=O)N2)C(=O)N[C@@H](Cc2ccc3ccccc3c2)C(=O)N[C@H](C(=O)N[C@@H](CCCCNC(C)=O)C(=O)N[C@@H](CC(N)=O)C(=O)NCC(N)=O)C2CCCCC2)cc1', '3 to 6 h'),
  ('CC(=O)N[C@H]1CCSC[C@@H](C(=O)N[C@@H](Cc2ccc(OCCN)cc2)C(=O)N[C@@H](Cc2ccc3ccccc3c2)C(=O)N[C@@](C)(CCCCN)C(=O)N[C@@H](CCC(=O)O)C(=O)N[C@@H](CC(N)=O)C(=O)NCC(N)=O)NC(=O)[C@H](CCC(N)=O)NC(=O)[C@H](Cc2c[nH]c3ccccc23)NC(=O)[C@H]([C@@H](C)O)NC(=O)[C@H]([C@@H](C)O)NC1=O', '3 to 6 h'),
  ('COc1ccc(C[C@H](NC(=O)[C@@H](NC(=O)[C@H](CCC(N)=O)NC(=O)[C@H](Cc2c[nH]c3ccccc23)NC(=O)[C@@H](NC(=O)[C@H](CCC(N)=O)NC(=O)[C@@H](NC(=O)[C@@H]2CCC(=O)N2)C(C)(C)S)[C@@H](C)O)C(C)(C)S)C(=O)N[C@@H](Cc2ccc3ccccc3c2)C(=O)N[C@@](C)(CCCCN)C(=O)N[C@@H](CCCCNC(C)=O)C(=O)N[C@@H](CC(N)=O)C(=O)NCC(N)=O)cc1', '3 to 6 h'),
  ('COc1ccc(C[C@H](NC(=O)[C@@H](NC(=O)[C@H](CCC(N)=O)NC(=O)[C@H](Cc2c[nH]c3ccccc23)NC(=O)[C@@H](NC(=O)[C@H](CC(N)=O)NC(=O)[C@@H](NC(C)=O)C(C)(C)S)[C@@H](C)O)C(C)(C)S)C(=O)N[C@@H](Cc2ccc3ccccc3c2)C(=O)NC2(C(=O)N[C@@H](CCCCNC(C)=O)C(=O)N[C@@H](CC(N)=O)C(=O)N[C@@H](CC(N)=O)C(N)=O)CCOCC2)cc1', '> 6 h');
